target: full-length beta-Catenin (Uniprot ID P35222) (Homo sapiens, UniProt P35222); construct: 10 nM full-length beta-Catenin (Uniprot ID P35222); assay: Fluorescence polarization IC50 (beta-catenin / 5FAM-TCF4 10-53 competition); type: binding; conditions: fluorescence polarization; read-out: beta-Catenin FP IC50
Sequence (P35222 whole entry): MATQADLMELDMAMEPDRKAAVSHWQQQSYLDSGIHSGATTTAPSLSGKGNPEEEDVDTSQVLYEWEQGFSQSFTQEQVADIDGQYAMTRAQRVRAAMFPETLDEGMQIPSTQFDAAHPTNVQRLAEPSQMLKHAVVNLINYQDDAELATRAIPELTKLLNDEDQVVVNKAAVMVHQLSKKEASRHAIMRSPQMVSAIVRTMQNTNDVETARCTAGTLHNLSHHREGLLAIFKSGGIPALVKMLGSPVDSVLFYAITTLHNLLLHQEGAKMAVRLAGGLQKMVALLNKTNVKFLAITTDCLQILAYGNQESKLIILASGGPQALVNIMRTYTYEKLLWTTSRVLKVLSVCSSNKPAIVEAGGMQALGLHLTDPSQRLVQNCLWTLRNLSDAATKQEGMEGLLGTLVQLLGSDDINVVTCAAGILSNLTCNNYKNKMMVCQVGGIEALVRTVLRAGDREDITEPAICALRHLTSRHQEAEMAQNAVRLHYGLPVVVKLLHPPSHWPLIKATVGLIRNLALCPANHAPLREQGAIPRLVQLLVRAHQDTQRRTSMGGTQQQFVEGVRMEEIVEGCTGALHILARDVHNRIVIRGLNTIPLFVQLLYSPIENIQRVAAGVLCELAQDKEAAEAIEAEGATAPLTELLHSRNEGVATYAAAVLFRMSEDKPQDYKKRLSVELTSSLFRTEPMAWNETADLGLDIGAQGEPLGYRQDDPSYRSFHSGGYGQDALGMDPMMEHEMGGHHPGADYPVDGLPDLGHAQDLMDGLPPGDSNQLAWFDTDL
value_type: IC50 (nM)
Use nM as the unit, but write only the number.

Data request: Could you share what IC50 was measured for CC(=O)N1CCC[C@]12CC=CCCCC1(CCCC=CCCCOC(=O)N3CC[C@@](C(=O)N[C@@H](Cc4ccccc4C(F)(F)F)C(=O)N[C@@H](Cc4csc5ccccc45)C(=O)N[C@@H](C)C(N)=O)(C3)NC(=O)[C@H](CC(C)C)NC(=O)[C@H](Cc3ccccc3)NC(=O)[C@H](C)NC(=O)[C@H](CCC(=O)N3CCNC(=O)C3)NC(=O)[C@H](Cc3cccc(C(=O)O)c3)NC(=O)[C@H](CC(=O)O)NC1=O)NC(=O)[C@H](CC(C)(C)C)NC(=O)[C@H](CC(=O)O)NC2=O (stereo partly drawn) , tested on full-length beta-Catenin (Uniprot ID P35222) (Homo sapiens, UniProt P35222)?
Data returned: 5

Data request: Could you share what IC50 was measured for CC(=O)N1CCC[C@]12CC=CCCCC1(CCCC=CCCCOC(=O)N3CC[C@@](C(=O)N[C@@H](Cc4ccsc4)C(=O)N[C@@H](Cc4csc5ccccc45)C(=O)N[C@@H](CCC(N)=O)C(N)=O)(C3)NC(=O)[C@H](CC(C)C)NC(=O)[C@H](Cc3ccccc3)NC(=O)[C@H](C)NC(=O)[C@H](C)NC(=O)[C@H](Cn3cc(-c4ccccc4C(=O)O)nn3)NC(=O)[C@H](CC(=O)O)NC1=O)NC(=O)[C@H](CC(C)(C)C)NC(=O)[C@H](CC(=O)O)NC2=O (stereo partly drawn) , tested on full-length beta-Catenin (Uniprot ID P35222) (Homo sapiens, UniProt P35222)?
Data returned: 12

Data request: Could you share what IC50 was measured for COC(=O)C[C@@H]1NC(=O)[C@H](CC(=O)O)NC(=O)C2(CCCC=CCCCOC(=O)N3CC[C@@](C(=O)N[C@@H](Cc4ccsc4)C(=O)N[C@@H](Cc4csc5ccccc45)C(=O)N[C@@H](CCC(N)=O)C(N)=O)(C3)NC(=O)[C@H](CC(C)C)NC(=O)[C@H](Cc3ccccc3)NC(=O)[C@H](C)NC(=O)[C@H](C)NC1=O)CCCC=CC[C@]1(CCCN1C(C)=O)C(=O)N[C@@H](CC(=O)O)C(=O)N[C@@H](CC(C)(C)C)C(=O)N2 (stereo partly drawn) , tested on full-length beta-Catenin (Uniprot ID P35222) (Homo sapiens, UniProt P35222)?
Data returned: 349

Data request: Could you share what IC50 was measured for CC(=O)N1CCC[C@]12CC=CCC1(CC=CCCCCCOC(=O)N3CC[C@](C(=O)N[C@@H](Cc4ccsc4)C(=O)N[C@@H](Cc4csc5ccccc45)C(=O)N[C@@H](CCC(N)=O)C(N)=O)(C3)NC(=O)[C@H](CC(C)C)NC(=O)[C@H](Cc3ccccc3)NC(=O)[C@H](C)NC(=O)[C@H](C)NC(=O)[C@H](CC(=O)O)NC(=O)[C@H](CC(=O)O)NC1=O)NC(=O)[C@H](CC(C)(C)C)NC(=O)[C@H](CC(=O)O)NC2=O (single isomer, unassigned) [I-2158] , tested on full-length beta-Catenin (Uniprot ID P35222) (Homo sapiens, UniProt P35222)?
Data returned: 213

Data request: Could you share what IC50 was measured for CC(=O)N1CCC[C@]12CC=CCCCCC1(CCCCC=CCCCOC(=O)N3CC[C@@](C(=O)N[C@@H](Cc4ccccc4C(F)(F)F)C(=O)N[C@@H](Cc4csc5ccccc45)C(=O)N[C@@H](CCC(N)=O)C(N)=O)(C3)NC(=O)[C@H](CC(C)C)NC(=O)[C@H](Cc3ccccc3)NC(=O)[C@H](C)NC(=O)[C@H](C)NC(=O)[C@H](Cc3cccc(C(=O)O)c3)NC(=O)[C@H](CC(=O)O)NC1=O)NC(=O)[C@H](CC(C)(C)C)NC(=O)[C@H](CC(=O)O)NC2=O (stereo partly drawn) [I-2511] , tested on full-length beta-Catenin (Uniprot ID P35222) (Homo sapiens, UniProt P35222)?
Data returned: 566

Data request: Could you share what IC50 was measured for CC(=O)N1CCC[C@]12CC=CCCCC1(CCCC=CCCCOC(=O)N3CC[C@@](C(=O)N[C@@H](Cc4ccsc4)C(=O)N[C@@H](Cc4c[nH]c5cccc(Cl)c45)C(=O)N[C@@H](CCC(N)=O)C(N)=O)(C3)NC(=O)[C@H](CC(C)C)NC(=O)[C@H](Cc3ccccc3)NC(=O)[C@H](C)NC(=O)[C@H](C)NC(=O)[C@H](CC(=O)O)NC(=O)[C@H](CC(=O)O)NC1=O)NC(=O)[C@H](CC(C)(C)C)NC(=O)[C@H](CC(=O)O)NC2=O (stereo partly drawn) , tested on full-length beta-Catenin (Uniprot ID P35222) (Homo sapiens, UniProt P35222)?
Data returned: 253

Data request: Could you share what IC50 was measured for CC(=O)N1CCC[C@]12CC=CCCCC1(CCCC=CCCCOC(=O)N3CC[C@@](C(=O)N[C@@H](Cc4ccccc4Cl)C(=O)N[C@@H](Cc4csc5ccccc45)C(=O)N[C@@H](CCC(N)=O)C(N)=O)(C3)NC(=O)[C@H](Cc3ccc(C(F)(F)F)cc3)NC(=O)[C@H](Cc3ccccc3)NC(=O)[C@H](C)NC(=O)[C@H](C)NC(=O)[C@H](CC(=O)O)NC(=O)[C@H](CC(=O)O)NC1=O)NC(=O)[C@H](CC(C)(C)C)NC(=O)[C@H](CC(=O)O)NC2=O (stereo partly drawn) , tested on full-length beta-Catenin (Uniprot ID P35222) (Homo sapiens, UniProt P35222)?
Data returned: 29

Data request: Could you share what IC50 was measured for CC[C@@H]1NC(=O)[C@H](CC(=O)O)NC(=O)[C@]2(CC=CCCCC3(CCCC=CCCCCCC[C@@](C)(C(=O)N[C@@H](Cc4ccccc4)C(=O)N[C@@H](Cc4csc5ccccc45)C(=O)N[C@@H](Cc4c[nH]cn4)C(N)=O)NC(=O)[C@H](CC(N)=O)NC(=O)[C@H](Cc4ccccc4)NC(=O)[C@H](C)NC(=O)[C@H](C)NC(=O)[C@H](CC(=O)O)NC(=O)[C@H](CC(=O)O)NC3=O)NC1=O)CCCN2C(C)=O (stereo partly drawn) [I-574] , tested on full-length beta-Catenin (Uniprot ID P35222) (Homo sapiens, UniProt P35222)?
Data returned: 36

Data request: Could you share what IC50 was measured for CC(=O)N1CCC[C@]12CC=CCCCC1(CCCC=CCCCOC(=O)N3CC[C@@](C(=O)N[C@@H](Cc4ccccc4Cl)C(=O)N[C@@H](Cc4csc5ccccc45)C(=O)N[C@@H](CO)C(N)=O)(C3)NC(=O)[C@H]([C@@H](C)O)NC(=O)[C@H](Cc3ccccc3)NC(=O)[C@H](CC(C)C)NC(=O)[C@H](C)NC(=O)[C@H](CC(=O)O)NC(=O)[C@H](CC(=O)O)NC1=O)NC(=O)[C@H](CC1CCCCC1)NC(=O)[C@H](CC(=O)O)NC2=O (stereo partly drawn) , tested on full-length beta-Catenin (Uniprot ID P35222) (Homo sapiens, UniProt P35222)?
Data returned: 30
